# target-or-system: T1, B3GNT2 (Homo sapiens, UniProt Q9NY97)
# T1 construct: The respective ORFs of candidate genes [CD274 (NM_014143), MCL1 (NM_021960), JUNB (NM_002229), and B3GNT2 (NM_006577)] were synthesized; expressed in transfected cells; host or cells: A375 melanoma cells (lentiviral ORF overexpression)
# T1 sequence (Q9NY97 1-397): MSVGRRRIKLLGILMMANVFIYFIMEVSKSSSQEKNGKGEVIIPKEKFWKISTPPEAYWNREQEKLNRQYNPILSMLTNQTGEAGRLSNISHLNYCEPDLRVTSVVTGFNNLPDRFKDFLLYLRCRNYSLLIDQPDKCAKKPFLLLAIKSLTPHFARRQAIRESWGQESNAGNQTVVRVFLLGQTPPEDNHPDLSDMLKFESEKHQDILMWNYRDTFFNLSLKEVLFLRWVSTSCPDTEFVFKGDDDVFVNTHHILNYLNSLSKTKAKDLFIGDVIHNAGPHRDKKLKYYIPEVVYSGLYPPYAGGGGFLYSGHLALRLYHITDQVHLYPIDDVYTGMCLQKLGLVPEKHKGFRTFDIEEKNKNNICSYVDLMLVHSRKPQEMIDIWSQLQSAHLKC
# procedure-summary: Co-IP of FLAG-tagged B3GNT2 followed by mass spectrometry
# Format: cell-based
# Design: unit not given here
# condition: Co-IP with FLAG antibody, C-terminally FLAG-tagged B3GNT2; mass spectrometry count, unit not given

{"molecule": "ERLIN1 (protein) MNMTQARVLVAAVVGLVAVLLYASIHKIEEGHLAVYYRGGALLTSPSGPGYHIMLPFITTFRSVQTTLQTDEVKNVPCGTSGGVMIYIDRIEVVNMLAPYAVFDIVRNYTADYDKTLIFNKIHHELNQFCSAHTLQEVYIELFDQIDENLKQALQKDLNLMAPGLTIQAVRVTKPKIPEAIRRNFELMEAEKTKLLIAAQKQKVVEKEAETERKKAVIEAEKIAQVAKIRFQQKVMEKETEKRISEIEDAAFLAREKAKADAEYYAAHKYATSNKHKLTPEYLELKKYQAIASNSKIYFGSNIPNMFVDSSCALKYSDIRTGRESSLPSKEALEPSGENVIQNKESTG", "C-term flag": 9}
{"molecule": "SLC25A22 (protein) MADKQISLPAKLINGGIAGLIGVTCVFPIDLAKTRLQNQQNGQRVYTSMSDCLIKTVRSEGYFGMYRGAAVNLTLVTPEKAIKLAANDFFRHQLSKDGQKLTLLKEMLAGCGAGTCQVIVTTPMEMLKIQLQDAGRIAAQRKILAAQGQLSAQGGAQPSVEAPAAPRPTATQLTRDLLRSRGIAGLYKGLGATLLRDVPFSVVYFPLFANLNQLGRPASEEKSPFYVSFLAGCVAGSAAAVAVNPCDVVKTRLQSLQRGVNEDTYSGILDCARKILRHEGPSAFLKGAYCRALVIAPLFGIAQVVYFLGIAESLLGLLQDPQA", "C-term flag": 2}
{"molecule": "RCN1 (protein) KPTVRKERVVRPDSELGERPPEDNQSFQYDHEAFLGKEDSKTFDQLTPDESKERLGKIVDRIDNDGDGFVTTEELKTWIKRVQKRYIFDNVAKVWKDYDRDKDDKISWEEYKQATYGYYLGNPAEFHDSSDHHTFKKMLPRDERRFKAADLNGDLTATREEFTAFLHPEEFEHMKEIVVLETLEDIDKNGDGFVDQDEYIADMFSHEENGPEPDWVLSEREQFNEFRDLNKDGKLDKDEIRHWILPQDYDHAQAEARHLVYESDKNKDEKLTKEEILENWNMFVGSQATNYGEDLTKNHDEL", "C-term flag": 9}
{"molecule": "CSRP1 (protein) MPNWGGGKKCGVCQKTVYFAEEVQCEGNSFHKSCFLCMVCKKNLDSTTVAVHGEEIYCKSCYGKKYGPKGYGYGQGAGTLSTDKGESLGIKHEEAPGHRPTTNPNASKFAQKIGGSERCPRCSQAVYAAEKVIGAGKSWHKACFRCAKCGKGLESTTLADKDGEIYCKGCYAKNFGPKGFGFGQGAGALVHSE", "C-term flag": 3}
{"molecule": "SMN1 (protein) AMSSGGSGGGVPEQEDSVLFRRGTGQSDDSDIWDDTALIKAYDKAVASFKHALKNGDICETSGKPKTTPKRKPAKKNKSQKKNTAASLQQWKVGDKCSAIWSEDGCIYPATIASIDFKRETCVVVYTGYGNREEQNLSDLLSPICEVANNIEQNAQENENESQVSTDESENSRSPGNKSDNIKPKSAPWNSFLPPPPPMPGPRLGPGKPGLKFNGPPPPPPPPPPHLLSCWLPPFPSGPPIIPPPPPICPDSLDDADALGSMLISWYMSGYHTGYYMEMLA", "C-term flag": 14}
